# Test system: A-549
# ASSAY METHOD TEXT: Inhibition of cells growth by colorimetric (SRB) assay, A-549
# ASSAY CONTEXT: SRB assay, 48 hours exposure
TEST READOUT: A-549 TGI
Answer with the value's number alone.

Look up A-549 TGI for this compound: Nc1nccc2c(-c3ccccc3)c3cccnc3n12 3.84E−05

Input COc1cccc(-c2c3cccnc3n3c(N)nccc23)c1 3.44E−05

Input CSc1nccc(-c2c3cccnc3n3c(NC(C)=O)nccc23)n1 1.19E−06

---

# Test system: SK-OV-3
# ASSAY METHOD TEXT: Inhibition of cells growth by colorimetric (SRB) assay, SK-OV-3
# ASSAY CONTEXT: Homo sapiens, SK-OV-3, 48 h, read-out: GI50 SKOV-3, SRB assay, 48 hours exposure
Property: GI50; scope: individual compounds
Numbers only; they are read as µM.

Nc1nccc(-c2c3c(O)ccnc3n3c(N)nccc23)n1 [Variolin B1, variolin B, reference compound] | 1.21
CSc1nccc(-c2c3c(Cl)ccnc3n3c(N)nccc23)n1 [Compound 107] | 0.195
COc1nccc(-c2c3c(Cl)ccnc3n3c(N)nccc23)n1 [Compound 112] | 0.989
Nc1nccc(-c2c3c(Cl)ccnc3n3c(N)nccc23)n1 [Compound 113] | 1.37
COc1nccc(-c2c3c(O)ccnc3n3c(N)nccc23)n1 [Compound 105] | 8.14

Look up GI50 for this compound: Nc1nccc(-c2c3cc(Cl)cnc3n3c(N)nccc23)n1 [Compound 49] 5.42

Input COc1ccc(CNc2ccnc3c2c(-c2ccnc(OC)n2)c2ccnc(NCc4ccc(OC)cc4)n23)cc1 [Compound 87] 17.3

Input Nc1nccc2c(-c3ccnc(O)n3)c3cccnc3n12 [Compound 80] 12.5

Input CSc1nccc2c(C(C)C)c3cccnc3n12 [Compound 61] 12.4

---

# Tested on: LoVo-Dox
# ASSAY METHOD TEXT: Inhibition of cells growth by colorimetric (SRB) assay, LoVo-Dox
# ASSAY CONTEXT: read-out: LC50 LOVO-DOX; SRB assay, 48 hours exposure
Property: CC50; scope: individual compounds

These solved cases illustrate the format of a correct answer.
COc1nccc(-c2c3cccnc3n3c(N)nccc23)n1 [Compound 76] | ≥ 34.2 µM
Cl.Nc1nccc(-c2c3c(N)ccnc3n3c(N)nccc23)n1 [Compound 91] | 7.47 µM

Any idea what CC50 came out for COc1ccnc2c1c(-c1ccnc(N)n1)c1ccnc(N)n12.Cl [Compound 116] on LoVo-Dox? 26.3 µM

Input Cc1ccc2c(-c3ccnc(N)n3)c3ccnc(N)n3c2n1 [Compound 24] ≥ 34.3 µM

Input Cl.Nc1nccc2c(-c3ccncn3)c3c(O)ccnc3n12 [Compound 101] ≥ 33.9 µM

Input CCOc1nccc(-c2c3cccnc3n3c(N)nccc23)n1 [Compound 77] 15.1 µM

---

Property: CC50; scope: individual compounds
# Test system: A-549
# ASSAY METHOD TEXT: Inhibition of cells growth by colorimetric (SRB) assay, A-549
# ASSAY CONTEXT: read-out: LC50 A-549; SRB assay, 48 hours exposure

COc1nccc(-c2c3cccnc3n3c(N)nccc23)n1.Cl | ≥ 30.4 µM

Look up CC50 for this compound: COc1ccnc2c1c(-c1ccnc(N)n1)c1ccnc(N)n12 8.23 µM

Input COc1nccc(-c2c3cccnc3n3c(N)nccc23)n1 7.7 µM

Input Cl.Nc1nccc2c(-c3ccncn3)c3c(O)ccnc3n12 ≥ 33.9 µM

---

# System: LoVo
# ASSAY METHOD TEXT: Inhibition of cells growth by colorimetric (SRB) assay, LoVo
# ASSAY CONTEXT: read-out: LOVO LC50; SRB assay, 48 hours exposure
TEST READOUT: CC50

Look up CC50 for this compound: CSc1nccc(-c2c3c(O)ccnc3n3c(N)nccc23)n1 ≥ 30.8 µM

---

# System: SK-MEL-28
# ASSAY METHOD TEXT: Inhibition of cells growth by colorimetric (SRB) assay, SK-MEL-28
# ASSAY CONTEXT: SRB assay, 48 hours exposure
Property: MEL-28 TGI; scope: individual compounds

These solved cases illustrate the format of a correct answer.
CSc1nccc(-c2c3cccnc3n3c(NC(C)=O)nccc23)n1 [Compound 69] | 6.51E−06
Cl.Nc1nccc(-c2c3c(O)ccnc3n3c(N)nccc23)n1 [Compound 54] | 3.22E−06
CSc1nccc(-c2c3c(N)ccnc3n3c(N)nccc23)n1.Cl [Compound 93] | 3.71E−06

API: the following record is the query input.
Look up MEL-28 TGI for this compound: CSc1nccc(-c2c3c(O)ccnc3n3c(N)nccc23)n1 [Compound 95] 3.08E−05

---

# ASSAY METHOD TEXT: in vitro
TEST READOUT: CC50 at 48 h (µM)
Numbers only; they are read as µM.

Look up CC50 at 48 h for this compound: Nc1nccc(-c2c3c(O)ccnc3n3c(N)nccc23)n1 [Variolin B1, variolin B, reference compound] 6.07

---

# System: HT-29
# ASSAY METHOD TEXT: Inhibition of cells growth by colorimetric (SRB) assay, HT-29
# ASSAY CONTEXT: Homo sapiens, HT-29, 48 h, read-out: LC50 HT-29, SRB assay, 48 hours exposure
Property: CC50; scope: individual compounds
Numbers only; they are read as µM.

These solved cases illustrate the format of a correct answer.
CSc1nccc(-c2c3cc(Cl)cnc3n3c(SC)nccc23)n1 | 26.7
CSc1nccc(-c2c3c(Cl)ccnc3n3c(SC)nccc23)n1 | 26.7
COc1ccc(CNc2ccnc3c2c(-c2ccnc(SC)n2)c2ccnc(NCc4ccc(OC)cc4)n23)cc1 | 17.7
Nc1nccc2c(-c3ccnc(OCc4ccccc4)n3)c3c(OCc4ccccc4)ccnc3n12 | 21.1
CSc1nccc(-c2c3cccnc3n3c(N(C(C)=O)C(C)=O)nccc23)n1 | 25.5
Cl.Nc1nccc(-c2c3cccnc3n3c(N)nccc23)n1 | 28.6
Nc1nccc2c(-c3cccc([N+](=O)[O-])c3)c3cccnc3n12 | 32.8
COc1ccnc2c1c(-c1ccnc(N)n1)c1ccnc(N)n12 | 32.5

API: the following record is the query input.
Look up CC50 for this compound: CSc1nccc(-c2c3c(Cl)ccnc3n3c(N)nccc23)n1 29.2

---

# Test system: HT-29
# ASSAY METHOD TEXT: Inhibition of cells growth by colorimetric (SRB) assay, HT-29
# ASSAY CONTEXT: Homo sapiens, HT-29, 48 h, read-out: HT-29 LC50, SRB assay, 48 hours exposure
TEST READOUT: CC50 (µM)
Numbers only; they are read as µM.

Nc1nccc(-c2c3cccnc3n3c(N)nccc23)n1 [Deoxyvariolin 4, deoxyvariolin B, reference compound] | 11.3

Any idea what CC50 came out for CSc1nccc(-c2c3c(O)ccnc3n3c(N)nccc23)n1.Cl on HT-29? 18.7

Input CSc1nccc2c(-c3cccc([N+](=O)[O-])c3)c3cccnc3n12 29.7

Input CS(=O)(=O)c1nccc(-c2c3cccnc3n3c(N)nccc23)n1 29.4

Input CSc1nccc(-c2c3cccnc3n3c(N(C(C)=O)C(C)=O)nccc23)n1 24.6

Input CSc1nccc(-c2c3c(N)ccnc3n3c(N)nccc23)n1.Cl 25.2

Input Cl.Nc1nccc(-c2c3c(Cl)ccnc3n3c(N)nccc23)n1 26

Input CSc1nccc(-c2c3cccnc3n3c(N)nccc23)n1.Cl 29

---

Property: GI50; scope: individual compounds
# System: DU-145
# ASSAY METHOD TEXT: Inhibition of cells growth by colorimetric (SRB) assay, DU-145
# ASSAY CONTEXT: Homo sapiens, DU-145, 48 h, read-out: GI50 DU-145, SRB assay, 48 hours exposure
Numbers only; they are read as nM.

These solved cases illustrate the format of a correct answer.
COc1ccnc2c1c(-c1ccnc(N)n1)c1ccnc(N)n12 | 732
CSc1nccc(-c2c3c(Cl)ccnc3n3c(N)nccc23)n1 | 653
Nc1nccc2c(-c3ccncn3)c3c(OCc4ccccc4)ccnc3n12 | 5940
Nc1nccc(-c2c3c(F)ccnc3n3c(N)nccc23)n1 | 759
COc1nccc(-c2c3cccnc3n3c(N)nccc23)n1.Cl | 928

Look up GI50 for this compound: COc1ccc(CNc2ccnc3c2c(-c2ccnc(OC)n2)c2ccnc(NCc4ccc(OC)cc4)n23)cc1 18300

Input CC(C)c1c2cccnc2n2c(N)nccc12 10000

Input Nc1nccc(-c2c3c(Cl)ccnc3n3c(N)nccc23)n1 1510

Input Cl.Nc1nccc2c(-c3ccncn3)c3cccnc3n12 750

Input CS(=O)(=O)c1nccc(-c2c3c(Cl)ccnc3n3c(N)nccc23)n1 1940

Input Nc1nccc(-c2c3cccnc3n3ccccc23)n1 2120

---

# Tested on: LoVo-Dox
# ASSAY METHOD TEXT: Inhibition of cells growth by colorimetric (SRB) assay, LoVo-Dox
# ASSAY CONTEXT: SRB assay, 48 hours exposure
TEST READOUT: TGI LOVO-DOX
Answer with the value's number alone.

CSc1nccc2c(-c3cccs3)c3cccnc3n12 | 3.36E−05

Look up TGI LOVO-DOX for this compound: Nc1nccc2c(-c3ccnc(O)n3)c3c(O)ccnc3n12 2.45E−05

Input Nc1nccc(-c2c3cc4ccccc4nc3n3c(N)nccc23)n1 [Compound 19a] 7.51E−06

Input COc1nccc(-c2c3c(N)ccnc3n3c(N)nccc23)n1 3.87E−06

Input Nc1nccc(-c2c3cc(F)c(Cl)nc3n3c(N)nccc23)n1 3.03E−05

Input CSc1nccc(-c2c3cccnc3n3c(N(C(C)=O)C(C)=O)nccc23)n1 1.10E−05

Input Cc1ccc2c(-c3ccnc(N)n3)c3ccnc(N)n3c2n1 3.43E−06

All figures here come from patent US7772241B2.
